Could you please report measured TGI for the items listed next?
# System: TK-10 renal
# test summary: NCI tumour cell line growth inhibition, 48 h

Worked examples, 3 molecules total:
1. CCC1CCCCN1CC(C(C)=O)C(c1ccccc1)c1c(O)c2ccccc2oc1=O (stereo not drawn): > 100 µM
2. COc1ccc(C2NN=C3c4ccccc4CCC32)cc1 (stereo not drawn): 71.8 µM
3. O=C1Nc2cccc(Cl)c2/C1=C\c1c(-c2ccccc2)nc2n1CCS2: 45.1 µM

Okay, here is my list. What is TGI for each of these?
1. CCN1CCN(c2cc(C(=O)Nc3cccc(Nc4ccc5c(OC)cccc5n4)c3)cc(C(F)(F)F)c2)CC1
2. Fc1ccc2c(c1)C1=C(CCC2)C(c2ccc(Cl)cc2)NC(=S)N1 (stereo not drawn)

1. 8.02 µM
2. 80.3 µM

Provide TGI values for the following items, in order.
1. CN1CCN(Cc2ccc(NC(=O)c3[nH]ncc3Nc3ncnc4[nH]ccc34)cc2)CC1
2. O=c1[nH]n(CCc2ccccc2CCl)c2ccc([N+](=O)[O-])cc12
3. O=[N+]([O-])c1ccc(N2N=C(c3c(O)ccc4ccccc34)CC2c2ccc(Cl)cc2)c([N+](=O)[O-])c1 (stereo not drawn)

["2.37 µM", "> 100 µM", "> 100 µM"]

###

# Test system: M19-MEL melanoma
# test summary: NCI tumour cell line growth inhibition, 48 h
Please respond with reported TGI for every item in the list.

1) CC1=NN(c2ccccc2)C(=O)C12[C@H](c1ccccc1)C2(C#N)C#N (stereo partly specified): 6.41 µM

Dear reader, for each entry below, please note its TGI.
1. COC(=O)/C(C#N)=C1\CCC(OC)N1C (stereo unspecified)
2. CC(/C=C/C(=O)c1sc(C(N)=S)nc1C)=C\c1ccccc1
3. CN1CCN=C1c1nnn(-c2ccc([N+](=O)[O-])cc2)c1-c1ccccc1
4. COc1cc2c(cc1OC)C(C(CBr)CBr)N(C1CCCC1)CC2 (stereo unspecified)

1. > 100 µM
2. > 100 µM
3. > 100 µM
4. > 100 µM

In plain terms, O=C(O)c1c2c(cc3c(=O)c4ccccc4[nH]c13)CCCC2 has a documented TGI of > 100 µM

###

Hi there, I'd appreciate the recorded GI50 for every entry that follows.
# System: EKVX NSCLC
# test summary: NCI tumour cell line growth inhibition, 48 h

Consider the following illustrative entries.
1) O=C1NC(=O)C(c2cccc(Cl)c2)=C1Nc1ccc(Cl)c(C(=O)O)c1: > 25 µM
2) CC(C)=Cc1cc(C)c2ccc(C)c3c2c1C(C)=C(O)C3=O: 40.8 µM
3) Cc1ccc2oc(=O)c3c(O)c4cccc(OC5OC(C)C6O[C@@H](c7ccccc7)OC6C5OC5OC(C)C(O)C(O)C5O)c4c4oc(=O)c1c2c34 (some centres undefined): 0.519 µM
4) COc1cc(S(=O)(=O)Nc2nc(-c3ccc(N4C(=O)C(C)SC4c4ccccc4O)cc3)cs2)ccc1Cl (centres undefined): 42.8 µM
5) O=C(O)COc1ccc(OCC(=O)O)cc1: 6.43 µM

Would you mind listing GI50 for each of the following molecules?
1. CCC[CH2][Sn]([CH2]CCC)([CH2]CCC)/[C](=C/[Si](C)(C)c1ccccc1)c1ccc2c(c1)OCO2
2. CCOC(=O)c1c(-c2ccccc2)[n+](=O)c2cc(F)c(F)cc2n1[O-]
3. Cc1c(Nc2nccc3cc(CN4CC[C@@H](O)C4)cnc23)cccc1-c1cccc(-c2nc3cc(CN4CC[C@@H](C(=O)O)C4)cc(C#N)c3o2)c1C
4. C=C(C(=O)OC)[C@@H]1CC2OC1C(=O)C(C)CCC/C(C)=C/CC[C@@]2(C)O (some centres undefined)

["15.2 µM", "1.73 µM", "> 100 µM", "63.2 µM"]
